system tested: human TLR9 (Homo sapiens (Human), UniProt Q9NR96)
Sequence (Q9NR96 26-1032): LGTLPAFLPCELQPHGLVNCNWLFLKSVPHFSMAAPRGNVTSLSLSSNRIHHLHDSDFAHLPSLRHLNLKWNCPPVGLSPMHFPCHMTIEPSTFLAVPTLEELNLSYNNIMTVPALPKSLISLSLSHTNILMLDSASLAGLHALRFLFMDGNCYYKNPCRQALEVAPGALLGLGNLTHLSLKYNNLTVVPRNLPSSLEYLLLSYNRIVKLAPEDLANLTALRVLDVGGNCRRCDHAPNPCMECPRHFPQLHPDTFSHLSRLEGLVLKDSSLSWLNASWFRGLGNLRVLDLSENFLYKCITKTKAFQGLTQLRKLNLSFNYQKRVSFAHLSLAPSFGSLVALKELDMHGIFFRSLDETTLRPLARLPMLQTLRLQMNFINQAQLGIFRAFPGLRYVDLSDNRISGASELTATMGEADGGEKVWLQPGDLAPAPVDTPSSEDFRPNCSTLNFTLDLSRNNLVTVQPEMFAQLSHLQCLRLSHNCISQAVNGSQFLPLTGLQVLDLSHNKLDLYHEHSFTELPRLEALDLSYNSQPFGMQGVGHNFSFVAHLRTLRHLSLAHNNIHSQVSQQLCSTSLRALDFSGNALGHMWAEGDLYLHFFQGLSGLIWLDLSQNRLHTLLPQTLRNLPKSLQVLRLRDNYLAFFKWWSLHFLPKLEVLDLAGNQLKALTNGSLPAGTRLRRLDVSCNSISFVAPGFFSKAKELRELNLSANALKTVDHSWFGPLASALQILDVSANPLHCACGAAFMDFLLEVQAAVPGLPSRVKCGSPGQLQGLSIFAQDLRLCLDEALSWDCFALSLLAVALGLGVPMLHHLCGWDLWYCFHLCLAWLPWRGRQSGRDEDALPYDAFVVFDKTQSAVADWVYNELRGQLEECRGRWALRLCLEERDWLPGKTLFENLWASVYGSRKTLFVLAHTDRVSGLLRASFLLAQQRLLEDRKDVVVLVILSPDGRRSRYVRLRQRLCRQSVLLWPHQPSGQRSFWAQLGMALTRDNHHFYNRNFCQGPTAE
assay overview: TLR9 inhibition reporter assay (HEK-Blue SEAP)
stated conditions: read-out: TLR9 IC50; HEK-Blue cells overexpressing human TLR9, ODN2006 5 nM stimulation, SEAP reporter
outcome measure: IC50 (µM)

These recorded examples may help you get a feel for the data.
COc1cc(-c2[nH]c3cnc(N4CCN(C5CCC5)C[C@H]4C)c(F)c3c2C(C)C)cn2ncnc12 : 7.32
COc1cc(-c2[nH]c3cnc(C4CCC(NCC(C)(C)OC)C4)cc3c2C(C)C)cn2ncnc12 (stereo not shown) [Example 211] : 2.25

(A) Cc1c(-c2[nH]c3cnc(C4CCN(C5COC5)CC4)cc3c2C(C)C)cn2ncnc2c1C
(B) COc1cc(-c2[nH]c3cnc(N4CC5(CN(CC6CCOCC6)C5)C4)c(F)c3c2C(C)C)cn2ncnc12
In: Select the item whose IC50 value is smaller, choosing between A and B . Which one? Tell me its label.
Out: A

###

system tested: human TLR8 (Homo sapiens (Human))
Sequence (Q9NR97 27-1041): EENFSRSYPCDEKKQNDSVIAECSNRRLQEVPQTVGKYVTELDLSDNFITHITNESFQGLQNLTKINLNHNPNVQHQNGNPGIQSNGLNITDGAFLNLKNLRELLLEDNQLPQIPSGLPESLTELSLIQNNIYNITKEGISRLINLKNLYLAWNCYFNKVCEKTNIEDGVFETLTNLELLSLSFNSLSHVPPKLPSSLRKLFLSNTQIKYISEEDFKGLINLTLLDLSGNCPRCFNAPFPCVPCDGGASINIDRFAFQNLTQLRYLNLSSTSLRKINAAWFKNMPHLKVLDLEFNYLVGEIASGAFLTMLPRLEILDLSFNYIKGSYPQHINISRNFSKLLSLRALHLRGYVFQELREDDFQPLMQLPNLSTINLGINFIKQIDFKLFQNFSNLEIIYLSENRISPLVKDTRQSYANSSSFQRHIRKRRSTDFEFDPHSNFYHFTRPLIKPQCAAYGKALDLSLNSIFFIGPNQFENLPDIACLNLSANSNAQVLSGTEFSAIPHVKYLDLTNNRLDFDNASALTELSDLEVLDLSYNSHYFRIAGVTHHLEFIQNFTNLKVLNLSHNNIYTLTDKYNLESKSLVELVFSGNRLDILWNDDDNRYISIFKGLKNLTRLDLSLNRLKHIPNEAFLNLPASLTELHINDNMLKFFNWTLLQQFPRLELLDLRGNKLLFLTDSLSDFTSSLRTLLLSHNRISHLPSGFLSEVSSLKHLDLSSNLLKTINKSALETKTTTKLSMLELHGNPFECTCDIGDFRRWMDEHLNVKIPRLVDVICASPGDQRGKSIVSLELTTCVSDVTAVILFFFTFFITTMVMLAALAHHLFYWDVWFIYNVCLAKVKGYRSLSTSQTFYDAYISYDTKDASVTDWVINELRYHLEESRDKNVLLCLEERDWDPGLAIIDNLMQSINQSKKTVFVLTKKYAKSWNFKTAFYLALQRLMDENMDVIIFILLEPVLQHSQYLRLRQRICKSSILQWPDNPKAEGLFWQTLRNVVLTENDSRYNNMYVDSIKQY
assay overview: TLR8 inhibition reporter assay (HEK-Blue SEAP)
stated conditions: read-out: TLR8 IC50; HEK-Blue cells overexpressing human TLR8; R848 15.9 μM stimulation; SEAP reporter
outcome measure: IC50 (nM)

Answered cases to consult:
Cc1c(-c2[nH]c3cnc(N4CCN(C5CCC5)C[C@H]4C)c(F)c3c2C(C)C)cn2ncnc2c1C [Example 458] : 1.2
CCCN1CCN(c2ncc3[nH]c(-c4cn5ncnc5c(C)c4C)c(C(C)C)c3c2F)[C@H](C)C1 [Example 455] : 0.17
COc1cc(-c2[nH]c3cnc(C4CCC(N(C)C(C)C)CC4)c(F)c3c2C(C)C)cn2ncnc12 (stereo not drawn) [Example 227] : 2.6

(P) Cc1c(-c2[nH]c3cnc(N4CCN(CC(=O)N(C)C)C[C@H]4C)c(F)c3c2C(C)C)cn2ncnc2c1C [Example 466]
(Q) Cc1c(-c2[nH]c3cnc(N4CCN(C(=O)CN(C)C)C[C@H]4C)c(F)c3c2C(C)C)cn2ncnc2c1C [Example 470]
In: Compare P and Q and name the one whose reported IC50 is smaller. Mark your selection by writing its label.
Out: Q

###

system tested: UniProt:Q9NR97
assay overview: TLR8 inhibition reporter assay (HEK-Blue SEAP)
stated conditions: read-out: TLR8 IC50; HEK-Blue cells overexpressing human TLR8, R848 15.9 μM stimulation, SEAP reporter
outcome measure: IC50 (nM)

Reference set, count: 6
Cc1c(-c2[nH]c3cnc(C4CCC(NC5COC5)CC4)c(F)c3c2C(C)C)cn2ncnc2c1C (stereo not drawn) [Example 267] : 1.9
COc1cc(-c2[nH]c3cnc(N4CC5(CN(CC6CCOCC6)C5)C4)c(F)c3c2C(C)C)cn2ncnc12 [Example 371] : 5.9
Cc1c(N2CCC(N3CCN(S(C)(=O)=O)CC3)CC2)ncc2[nH]c(-c3cc(C)c4ncnn4c3)c(C(C)C)c12 [Example 285] : 1.6
Cc1c(-c2[nH]c3cnc(N4CCN(CC5(C)COC5)CC4)c(F)c3c2C(C)C)cn2ncnc2c1C [Example 410] : 1.3
Cc1c(-c2[nH]c3cnc(N4CCN(S(C)(=O)=O)CC4)c(F)c3c2C(C)C)cn2ncnc2c1C [Example 425] : 17
Cc1c(-c2[nH]c3cnc(N4CCC(N(C)C(C)C)CC4)c(F)c3c2C(C)C)cn2ncnc2c1C [Example 52] : 0.42

(a) COc1cc(-c2[nH]c3cnc(N4CCN(C)C[C@H]4C)c(F)c3c2C(C)C)cn2ncnc12 [Example 436]
(b) Cc1c(-c2[nH]c3cnc(C4CCC(NC(C)C)CC4)c(F)c3c2C(C)C)cn2ncnc2c1C (stereo not drawn) [Example 136]
(c) COc1cc(-c2[nH]c3cnc(C4CCN(CCS(C)(=O)=O)CC4)c(F)c3c2C(C)C)cn2ncnc12 [Example 14]
In: Hello, I need these entries ordered by IC50, highest reading first. Thanks! Put the labels in the requested order and write them down.
Out: a, c, b

(P) CCN(C)C1CCC(c2cc3c(C(C)C)c(-c4cc(OC)c5ncnn5c4)[nH]c3cn2)C1 (stereo not drawn) [Example 248]
(Q) COc1cc(-c2[nH]c3cnc(C4CCC(NCC(C)(C)C)C4)cc3c2C(C)C)cn2ncnc12 (stereo not drawn) [Example 95]
(R) Cc1cc(-c2[nH]c3cnc(C4CCN(CC5(C)COC5)CC4)c(F)c3c2C(C)C)cn2ncnc12 [Example 250]
In: Ascending by IC50, please: list the molecules accordingly. Labels, requested order.
Out: R, P, Q
(R: 3.4 nM, P: 6.8 nM, Q: 35 nM)

###

system tested: human TLR9 (Homo sapiens (Human), UniProt Q9NR96)
assay overview: TLR9 inhibition reporter assay (HEK-Blue SEAP);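 also: SEAP driven by IFN-β minimal promoter carrying five NF-κB and AP-1 sites, 22 h at 37 °C, compounds 0.05 nM–50 µM, inhibition scaled between agonist-plus-DMSO and reference-inhibitor wells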
stated conditions: read-out: TLR9 IC50; HEK-Blue cells overexpressing human TLR9, ODN2006 5 nM stimulation, SEAP reporter
outcome measure: IC50 (µM)

Example entries begin here.
Cc1c(-c2[nH]c3cnc(C4CCN(CC(N)=O)CC4)c(F)c3c2C(C)C)cn2ncnc2c1C : 13.5
Cc1c(-c2[nH]c3cnc(C4CCC(N5CCC5)CC4)cc3c2C(C)C)cn2ncnc2c1C (stereo not drawn) : 0.669
Cc1c(-c2[nH]c3cnc(C4CCC(NCC(C)(C)O)CC4)c(C)c3c2C(C)C)cn2ncnc2c1C (stereo not drawn) [Example 122] : 0.4
COc1cc(-c2[nH]c3cnc(N4CCC(NC(C)C)CC4)cc3c2C(C)C)cn2ncnc12 : 0.657
COc1cc(-c2[nH]c3cnc(C4CCC(NCC(C)(C)OC)CC4)c(C)c3c2C(C)C)cn2ncnc12 (stereo not drawn) [Example 207] : 0.437

(P) CCN1CCN(c2ncc3[nH]c(-c4cn5ncnc5c(C)c4C)c(C(C)C)c3c2F)CC1
(Q) Cc1c(-c2[nH]c3cnc(N4CCN(CCS(C)(=O)=O)CC4)c(F)c3c2C(C)C)cn2ncnc2c1C
(R) Cc1cc(-c2[nH]c3cnc(C4CCN(C5COC5)CC4)cc3c2C(C)C)cn2ncnc12
(S) COc1cc(-c2[nH]c3cnc(C4CCC(NC(C)C)CC4)cc3c2C(C)C)cn2ncnc12 (stereo not drawn) [Example 323]
In: // ascending sort on recorded IC50 To answer, arrange all of the labels according to the requested order.
Out: S, R, P, Q

(1) COc1cc(-c2[nH]c3cnc(N4CC5(C4)CN(C(C)C)C5)c(F)c3c2C(C)C)cn2ncnc12
(2) COc1cc(-c2[nH]c3cnc(C4CCC(N5CCC5)CC4)c(F)c3c2C(C)C)cn2ncnc12 (stereo not drawn)
In: Form field 'greater IC50' accepts 1 or 2 ; which applies? Write down the label attached to your selection.
Out: 1
(1: 5.82 µM, 2: 0.447 µM)

(A) Cc1c(-c2[nH]c3cnc(C4CCC(NC5COC5)CC4)cc3c2C(C)C)cn2ncnc2c1C (stereo not drawn) [Example 346]
(B) COc1ccc(-c2[nH]c3cnc(C4CCN(C5CCN(CC(C)C)CC5)CC4)cc3c2C)cc1OC
(C) Cc1c(-c2[nH]c3cnc(C4CCC(NC[C@@H](F)C(C)(C)O)CC4)c(F)c3c2C(C)C)cn2ncnc2c1C (stereo partly drawn) [Example 240]
In: Rank descending by IC50. Rank the items, then write their labels in that order.
Out: C, A, B

(A) COc1cc(-c2[nH]c3cnc(N4CCC(N(C)C(C)C)CC4)c(F)c3c2C(C)C)cn2ncnc12
(B) Cc1c(-c2[nH]c3cnc(C4CCC(N5CC6(COC6)C5)CC4)c(C)c3c2C(C)C)cn2ncnc2c1C (stereo not drawn) [Example 142]
In: Could you kindly indicate whether A or B has the higher IC50 value? Indicate your choice by writing its label.
Out: A
(A: 4.14 µM, B: 0.282 µM)

###

system tested: UniProtKB Q9NR97
assay overview: TLR8 inhibition reporter assay (HEK-Blue SEAP);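 also: SEAP driven by IFN-β minimal promoter with five NF-κB and AP-1 sites, compounds tested 0.05 nM to 50 µM, 22 h incubation, inhibition relative to agonist plus DMSO wells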
stated conditions: read-out: TLR8 IC50; HEK-Blue cells overexpressing human TLR8, R848 15.9 μM stimulation, SEAP reporter
pIC50: −log10 of the molar value.
outcome measure: pIC50

Recorded results for 2 compounds are shown here.
Cc1c(-c2[nH]c3cnc(C4CCC(NCC(C)(C)C)CC4)cc3c2C(C)C)cn2ncnc2c1C (stereo not shown) [Example 337] : 8.40
COc1cc(-c2[nH]c3cnc(N4CCN(CC5CC5)CC4)c(F)c3c2C(C)C)cn2ncnc12 [Example 390] : 9.82

(1) COc1cc(-c2[nH]c3cnc(N4CC5(CN(CCS(C)(=O)=O)C5)C4)c(F)c3c2C(C)C)cn2ncnc12 [Example 357]
(2) COc1cc(-c2[nH]c3cnc(C4CCC(NC5COC5)C4)cc3c2C(C)C)cn2ncnc12 (stereo not shown) [Example 274]
In: Between these two entries, 1 and 2 , state which has the higher pIC50. Record your answer as the label of the chosen record.
Out: 1
(1: 8.00, 2: 7.46)
